Hello, the source for this data is patent US20240343704A1, in case you need it.

Target Of Assay: Recombinant (1-346) HPK1 (h) (Homo sapiens, UniProt Q92918)
Construct: Recombinant (1-346) HPK1 (h) is incubated with 8 mM MOPS pH 7.0
Sequence (Q92918 1-346): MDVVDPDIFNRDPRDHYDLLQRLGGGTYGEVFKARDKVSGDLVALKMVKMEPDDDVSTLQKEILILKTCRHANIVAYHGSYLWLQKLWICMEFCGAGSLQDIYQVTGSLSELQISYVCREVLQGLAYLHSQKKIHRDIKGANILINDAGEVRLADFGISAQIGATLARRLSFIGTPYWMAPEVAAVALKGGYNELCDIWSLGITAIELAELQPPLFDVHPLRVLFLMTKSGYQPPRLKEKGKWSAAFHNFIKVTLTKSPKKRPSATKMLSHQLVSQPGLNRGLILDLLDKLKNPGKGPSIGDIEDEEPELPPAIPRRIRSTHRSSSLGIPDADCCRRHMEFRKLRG
Procedure Details: HPK1 Human STE Kinase Enzymatic Radiometric Assay
Assay type: biochemical
Settings: read-out: HPK1 IC50 nM Range*
Readout: IC50

The cases that follow already have their IC50 on record.
>>> reported("CN(C)Cc1c(N2CCOCC2)ccc(-c2cc(-c3ccc4c(c3)CCNC4=O)c(N)nc2F)c1F [I-606]")
"11 to 100 nM"
>>> reported("Nc1nc(F)c(-c2ccc(C3COCCN3CC(F)F)cc2)cc1-c1ccc2c(c1)CCNC2=O (stereo not shown) [I-133]")
"0.1 to 10 nM"
>>> reported("Nc1nc(F)c(-c2ccc(OC3CNC3)cc2)cc1-c1ccc2c(c1)CCNC2=O [I-146]")
"11 to 100 nM"
>>> reported("Nc1nc(F)c(-c2ccc3c(c2)C(=O)CC2(CCNCC2)O3)cc1-c1ccc2c(c1)CCNC2=O [I-182, 2,2,2-trifluoroacetate]")
"0.1 to 10 nM"
>>> reported("Nc1nc(F)c(-c2ccc(C3CCOCC3)c(CN3CCC3)n2)cc1-c1ccc2c(c1)CCNC2=O [I-605]")
"0.1 to 10 nM"
>>> reported("Nc1nc(F)c(-c2ccc(C3CCCN(CC(F)F)C3)cc2)cc1-c1ccc2c(c1)CCNC2=O (stereo not shown) [I-78]")
"0.1 to 10 nM"
>>> reported("Cc1[nH]c(=O)c2ccc(-c3cc(-c4ccc(C5CCOCC5)c(CN(C)C)c4)c(F)nc3N)cc2c1F [I-521]")
"11 to 100 nM"
>>> reported("COc1ccc(-c2cc(-c3ccc4c(c3)CCNC4=O)c(N)nc2F)cc1CO [I-536]")
"11 to 100 nM"
>>> reported("Nc1nc(F)c(-c2ccc(C3CCOCC3)c(CN3CCCC3)c2)cc1-c1ccc2c(c1)CCNC2=O [I-557]")
"11 to 100 nM"
>>> reported("Nc1nc(F)c(-c2ccc(N3C[C@H]4COC[C@H]4C3)cc2)cc1-c1ccc2c(c1)CCNC2=O [I-91]")
"11 to 100 nM"

Sample CC(C)N1CCN(c2ccc(-c3cc(-c4cc5nc[nH]c(=O)c5cc4F)c(N)nc3F)cc2)CC1 [I-406] — what was its IC50?
0.1 to 10 nM

Sample Nc1nc(F)c(-c2ccc(OC3CN(C4COC4)C3)cc2)cc1-c1ccc2c(c1)CCNC2=O [I-318] — what was its IC50?
11 to 100 nM

Sample C[C@@H]1CN(c2ccc(-c3cc(-c4cc5c(cc4F)C(=O)NCC5)c(N)nc3F)cc2CN(C)C)CCO1 [I-576] — what was its IC50?
0.1 to 10 nM

Sample Nc1nc(F)c(-c2ccc(N3CCN4CCOCC4C3)cc2)cc1-c1ccc2c(c1)CCNC2=O (stereo not shown) [I-23] — what was its IC50?
0.1 to 10 nM

Sample CNCC1Cc2cc(-c3cc(-c4ccc5c(c4)CCNC5=O)c(N)nc3F)ccc2C(=O)N1 (stereo not shown) [I-276] — what was its IC50?
11 to 100 nM

Sample Nc1nc(F)c(-c2ccc(C3CCOCC3)c([C@@H]3CCCN3)c2)cc1-c1cc2c(cc1F)C(=O)NCC2 [I-368] — what was its IC50?
0.1 to 10 nM
